target.of.assay: human GSK-3β (Homo sapiens (Human), UniProt P49841)
Sequence (P49841 whole entry): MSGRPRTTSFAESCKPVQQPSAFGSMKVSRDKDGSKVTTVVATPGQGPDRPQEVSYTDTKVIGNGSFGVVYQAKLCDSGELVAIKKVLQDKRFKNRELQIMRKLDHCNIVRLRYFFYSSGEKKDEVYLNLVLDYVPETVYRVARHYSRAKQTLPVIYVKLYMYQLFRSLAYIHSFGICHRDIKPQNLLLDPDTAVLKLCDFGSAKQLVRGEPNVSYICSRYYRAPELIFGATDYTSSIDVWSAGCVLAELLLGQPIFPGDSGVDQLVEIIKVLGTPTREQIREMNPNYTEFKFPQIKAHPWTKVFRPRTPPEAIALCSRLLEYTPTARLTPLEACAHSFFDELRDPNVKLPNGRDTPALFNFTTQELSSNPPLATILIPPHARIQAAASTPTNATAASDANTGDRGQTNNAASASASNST
test.summary: LanthaScreen TR-FRET Eu Kinase binding and displacement assay
protocol.conditions: five concentrations 100 μM to 10 nM, duplicate
pIC50: −log10 of the molar value.
metric: pIC50

Worked examples follow.
- molecule: "COc1ccc2[nH]nc(C(=O)NCC3CCN(Cc4ccnc(C(=O)O)c4)CC3)c2c1"
  pIC50: 6.35
- molecule: "COc1ccc2[nH]nc(C(=O)NCC3CCN(Cc4nc(C(=O)O)co4)CC3)c2c1 [Compound 10, hydrate]"
  pIC50: 6.51
- molecule: "O=C(O)c1coc(CN2CCC(CNC(=O)c3n[nH]c4ccc(-c5cccc(F)c5F)cc34)CC2)n1 [Compound 12, hydrate]"
  pIC50: 8.00
- molecule: "COc1ccc2[nH]nc(C(=O)NCC3CCN(Cc4ccc(C(=O)O)nc4)CC3)c2c1"
  pIC50: 6.49
- molecule: "COc1ccc2[nH]nc(C(=O)NCC3CCN(Cc4noc(C(N)=O)n4)CC3)c2c1"
  pIC50: 6.51

1 = COc1ccc2[nH]nc(C(=O)NCC3CCN(Cc4nc(C(=O)O)cs4)CC3)c2c1
2 = COc1ccc2[nH]nc(C(=O)NCC3CCN(CCC4CCCC(C)C4)CC3)c2c1 (stereo not shown)
Among 1 and 2 , which shows a numerically higher pIC50 result? Lab log: write the label of the selected item as the result.
1

----------
target.of.assay: UniProtKB P49841
test.summary: Kinase selectivity panel
Assay type: biochemical
protocol.conditions: duplicate, read-out: % inhibition of control values, GSK3beta (h)
Counter-ions that a name gives are not always drawn.
metric: inhibition at 10 µM (%)

- compound: "COc1ccncc1-c1ccc2[nH]nc(C(=O)NCC3CCN(Cc4ccc(C(=O)O)o4)CC3)c2c1 [Compound 21, formate]"
  inhibition at 10 µM / %: 96
- compound: "COc1ccc2[nH]nc(C(=O)NCC3CCN(CCc4ccc(O)cc4)CC3)c2c1"
  inhibition at 10 µM / %: 92
- compound: "COC(=O)c1csc(CN2CCC(CNC(=O)c3n[nH]c4ccc(OC)cc34)CC2)n1"
  inhibition at 10 µM / %: 96
- compound: "O=C(O)c1coc(CN2CCC(CNC(=O)c3n[nH]c4ccc(-c5cccc(F)c5F)cc34)CC2)n1 [Compound 12, hydrate]"
  inhibition at 10 µM / %: 100
- compound: "COc1ccc2[nH]nc(C(=O)NCC3CCN(Cc4ccc(C(=O)O)o4)CC3)c2c1"
  inhibition at 10 µM / %: 94

----------
target.of.assay: GSK3beta (h) (Homo sapiens (Human), UniProt P49841)
Sequence (P49841 whole entry): as above
test.summary: Kinase selectivity panel
Assay type: biochemical
protocol.conditions: panel of 60 kinases, 10 μM
Protocol: (a) Compound 1 was tested against a panel of 60 kinases in order to assess its selectivity. The assays were chosen taking into consideration the diversity of assay families. Human recombinant kinases were incubated in the presence of specific peptide substrates plus ATP for different times (10, 15, 30, 60 or 90 minutes) at 22° C. Phosphorylated substrate was detected by LANCE or HTRF technology (CISBIO, MA, USA). Compound 1 was tested at 10 μM in duplicate. […]
metric: Selectivity for GSK-3β compared to the other kinases of the panel

- chem.smiles: "COc1ccc2[nH]nc(C(=O)NCC3CCN(Cc4ccc(C(=O)O)o4)CC3)c2c1"
  assay.value: "good selectivity profile"
- chem.smiles: "COc1ccc2[nH]nc(C(=O)NCC3CCN(CCc4ccc(O)cc4)CC3)c2c1"
  assay.value: "good selectivity profile"
- chem.smiles: "COC(=O)c1csc(CN2CCC(CNC(=O)c3n[nH]c4ccc(OC)cc34)CC2)n1"
  assay.value: "good selectivity profile"

----------
target.of.assay: HGK (h) (MAP4K4) (Homo sapiens (Human), UniProt O95819)
Sequence (O95819 whole entry): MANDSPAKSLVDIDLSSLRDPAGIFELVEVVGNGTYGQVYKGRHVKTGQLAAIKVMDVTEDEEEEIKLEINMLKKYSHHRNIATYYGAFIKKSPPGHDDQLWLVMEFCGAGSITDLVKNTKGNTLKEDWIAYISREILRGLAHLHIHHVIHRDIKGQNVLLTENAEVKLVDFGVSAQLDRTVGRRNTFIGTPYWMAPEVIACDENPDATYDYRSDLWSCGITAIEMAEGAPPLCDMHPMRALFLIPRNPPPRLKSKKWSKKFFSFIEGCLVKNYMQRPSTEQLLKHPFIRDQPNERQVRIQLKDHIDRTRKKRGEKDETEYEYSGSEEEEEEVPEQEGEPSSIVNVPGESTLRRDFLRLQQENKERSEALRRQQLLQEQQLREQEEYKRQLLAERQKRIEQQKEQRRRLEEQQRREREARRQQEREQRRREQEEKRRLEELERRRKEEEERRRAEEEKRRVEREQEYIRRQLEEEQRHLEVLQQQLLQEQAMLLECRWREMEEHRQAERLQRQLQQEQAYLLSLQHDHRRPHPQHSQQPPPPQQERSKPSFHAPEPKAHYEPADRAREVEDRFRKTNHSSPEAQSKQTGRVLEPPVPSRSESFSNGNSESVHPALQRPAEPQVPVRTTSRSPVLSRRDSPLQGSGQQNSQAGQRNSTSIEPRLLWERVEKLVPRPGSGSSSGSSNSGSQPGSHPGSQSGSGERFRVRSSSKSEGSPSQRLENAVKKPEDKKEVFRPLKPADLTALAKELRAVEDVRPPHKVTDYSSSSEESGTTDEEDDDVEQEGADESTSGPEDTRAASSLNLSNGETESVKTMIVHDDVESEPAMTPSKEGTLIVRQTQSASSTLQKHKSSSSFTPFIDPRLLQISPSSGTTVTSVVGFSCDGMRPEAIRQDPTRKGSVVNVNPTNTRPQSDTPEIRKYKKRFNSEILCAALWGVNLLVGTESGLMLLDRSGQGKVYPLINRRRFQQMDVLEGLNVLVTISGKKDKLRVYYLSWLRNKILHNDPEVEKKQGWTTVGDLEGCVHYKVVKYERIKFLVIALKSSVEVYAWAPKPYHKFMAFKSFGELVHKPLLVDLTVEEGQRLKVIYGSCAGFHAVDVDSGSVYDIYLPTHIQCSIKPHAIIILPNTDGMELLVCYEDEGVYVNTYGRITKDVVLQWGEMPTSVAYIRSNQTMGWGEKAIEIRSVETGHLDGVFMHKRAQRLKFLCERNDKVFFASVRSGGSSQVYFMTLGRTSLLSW
test.summary: Kinase selectivity panel
Type: biochemical
protocol.conditions: duplicate, read-out: % inhibition of control values, HGK (h) (MAP4K4)
Where a name gives a salt, the structure may show the parent alone.
metric: inhibition at 10 µM (%)

- molecule: "COc1ccc2[nH]nc(C(=O)NCC3CCN(CCc4ccc(O)cc4)CC3)c2c1 [Compound 1]"
  unit.name: "%"
  inhibition at 10 µM: 17
- molecule: "COC(=O)c1csc(CN2CCC(CNC(=O)c3n[nH]c4ccc(OC)cc34)CC2)n1 [Compound 7]"
  unit.name: "%"
  inhibition at 10 µM: 21
- molecule: "O=C(O)c1coc(CN2CCC(CNC(=O)c3n[nH]c4ccc(-c5cccc(F)c5F)cc34)CC2)n1 [Compound 12, hydrate]"
  unit.name: "%"
  inhibition at 10 µM: 98

I = COc1ccncc1-c1ccc2[nH]nc(C(=O)NCC3CCN(Cc4ccc(C(=O)O)o4)CC3)c2c1 [Compound 21, formate]
II = COc1ccc2[nH]nc(C(=O)NCC3CCN(Cc4ccc(C(=O)O)o4)CC3)c2c1 [Compound 24]
Among I and II , which shows a numerically higher inhibition at 10 µM result? Lab log: write the label of the selected item as the result.
I
(I: 99%, II: 19%)

----------
target.of.assay: UniProt:Q00536
Sequence (Q00536 whole entry): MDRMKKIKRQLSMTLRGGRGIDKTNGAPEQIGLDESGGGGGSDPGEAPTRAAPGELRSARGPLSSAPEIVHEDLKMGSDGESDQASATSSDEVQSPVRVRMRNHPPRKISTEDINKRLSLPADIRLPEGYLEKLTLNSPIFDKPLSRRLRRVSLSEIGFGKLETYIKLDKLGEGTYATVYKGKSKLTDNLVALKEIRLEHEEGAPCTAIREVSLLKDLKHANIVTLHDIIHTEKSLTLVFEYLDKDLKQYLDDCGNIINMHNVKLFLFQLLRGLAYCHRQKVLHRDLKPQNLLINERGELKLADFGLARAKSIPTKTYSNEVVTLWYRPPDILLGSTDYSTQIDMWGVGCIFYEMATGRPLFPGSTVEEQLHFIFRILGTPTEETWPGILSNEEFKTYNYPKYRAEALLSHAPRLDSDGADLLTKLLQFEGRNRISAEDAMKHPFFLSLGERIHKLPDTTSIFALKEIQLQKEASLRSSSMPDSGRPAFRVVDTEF
test.summary: Kinase selectivity panel and IC50 determination
Format: biochemical
protocol.conditions: 10 μM, duplicate; read-out: % inhibition of control values, PCTAIRE1 kinase (h)
Structures can show the parent of a compound that is named as a salt.
metric: inhibition at 10 µM (%)

- molecule: "COc1ccncc1-c1ccc2[nH]nc(C(=O)NCC3CCN(Cc4ccc(C(=O)O)o4)CC3)c2c1 [Compound 21, formate]"
  unit.name: "%"
  assay.value: 94

P = COC(=O)c1csc(CN2CCC(CNC(=O)c3n[nH]c4ccc(OC)cc34)CC2)n1 [Compound 7]
Q = O=C(O)c1coc(CN2CCC(CNC(=O)c3n[nH]c4ccc(-c5cccc(F)c5F)cc34)CC2)n1 [Compound 12, hydrate]
R = COc1ccc2[nH]nc(C(=O)NCC3CCN(CCc4ccc(O)cc4)CC3)c2c1 [Compound 1]
S = COc1ccc2[nH]nc(C(=O)NCC3CCN(Cc4ccc(C(=O)O)o4)CC3)c2c1 [Compound 24]
Order each entry by recorded inhibition at 10 µM, climbing from the minimum. Note for the reader: the ranking is given by listing the labels in the order requested.
S, P, Q, R
(S: 1%, P: 2%, Q: 42%, R: 87%)

----------
target.of.assay: human GSK-3β (Homo sapiens (Human))
test.summary: Activity on human GSK-3β, substrate phosphorylation measured by LANCE technology
Type: biochemical
protocol.conditions: LANCE phosphorylation assay; five concentrations 100 μM to 10 nM, duplicate; read-out: IC50
Where a name gives a salt, the structure may show the parent alone.
metric: IC50 (nM)

Worked examples follow.
- compound: "COc1ccc2[nH]nc(C(=O)NCC3CCN(Cc4ccc(OCc5ccccc5)cc4)CC3)c2c1"
  IC50, nM: 350
- compound: "COc1ncccc1-c1ccc2[nH]nc(C(=O)NCC3CCN(Cc4ccc(C(=O)O)o4)CC3)c2c1 [Compound 16, hydrate]"
  IC50, nM: 360
- compound: "O=C(O)c1ccc(CN2CCC(CNC(=O)c3n[nH]c4ccc(Br)cc34)CC2)o1"
  IC50, nM: 210
- compound: "COc1ccc(-c2ccc3[nH]nc(C(=O)NCC4CCN(Cc5ccc(C(=O)O)o5)CC4)c3c2)cc1 [Compound 18, hydrate]"
  IC50, nM: 300
- compound: "COC(=O)c1ccoc1CN1CCC(CNC(=O)c2n[nH]c3ccc(OC)cc23)CC1"
  IC50, nM: 230

P = COC(=O)c1coc(CN2CCC(CNC(=O)c3n[nH]c4ccc(Br)cc34)CC2)n1
Q = COc1ccc2[nH]nc(C(=O)NCC3CCN(Cc4ccc(C(F)(F)F)cc4)CC3)c2c1
R = CCOC(=O)c1nc(CN2CCC(CNC(=O)c3n[nH]c4ccc(OC)cc34)CC2)cs1
S = COC(=O)c1csc(CN2CCC(CNC(=O)c3n[nH]c4ccc(OC)cc34)CC2)n1
T = COC(=O)c1coc(CN2CCC(CNC(=O)c3n[nH]c4ccc(OC)cc34)CC2)n1
Order each entry by recorded IC50, climbing from the minimum. Note for the reader: the ranking is given by listing the labels in the order requested.
S, T, P, Q, R

P = CCOC(=O)c1ccc(CN2CCC(CNC(=O)c3n[nH]c4ccc(OC)cc34)CC2)o1
Q = COc1ccncc1-c1ccc2[nH]nc(C(=O)NCC3CCN(Cc4ccc(C(=O)O)o4)CC3)c2c1 [Compound 21, formate]
R = O=C(O)c1ccc(CN2CCC(CNC(=O)c3n[nH]c4ccc(-c5ccccc5F)cc34)CC2)o1 [Compound 20, hydrate]
Arrange the 3 compounds from largest to smallest IC50. Note for the reader: the ranking is given by listing the labels in the order requested.
P, R, Q
(P: 330 nM, R: 20 nM, Q: 10 nM)

1 = COc1ccc2[nH]nc(C(=O)NCC3CCN(Cc4ccc(C(=O)O)o4)CC3)c2c1
2 = O=C(O)c1ccc(CN2CCC(CNC(=O)c3n[nH]c4ccc(-c5cccc(F)c5F)cc34)CC2)o1
Among 1 and 2 , which shows a numerically higher IC50 result? Lab log: write the label of the selected item as the result.
1
